Consider the following compounds and their measured logP readings.
// no unit string in output, number only

# count of solved cases: 3
CC[C@@H]1C(=O)OC[C@@H]1Cc1cncn1C	0.12
C=CCBr	1.79
CC(C)NCC(O)c1ccc(NS(C)(=O)=O)cc1 (stereo not given)	0.24

Item: "Cc1ccc2c(c1)c([N+](=O)[O-])cc[n+]2[O-]" | logP: 1.43

Item: "CCOC(=O)C=Cc1ccccc1" | logP: 2.99

Item: "CNC(=O)Oc1ccc2c(c1)[C@]1(C)CCN(C)[C@@H]1N2C" | logP: 1.58

Item: "CCCCCn1nnc2ccccc21" | logP: 3.22

Item: "CCCCCC(C)=O" | logP: 1.98

Item: "NNc1ccccc1" | logP: 1.25

Item: "CC(=O)C(C#N)=NNc1ccc(SC(F)(F)F)cc1" | logP: 5.04

The origin of these recorded values is the SangsterLogP compilation.
